Ref: patent US20260258115A1

# maps each entry to its pKd
- Measured on: RSV postfusion F (postF), F ΔFP (Respiratory syncytial virus, UniProt P03420 26-513)
- Method: BLI, IgG on anti-human IgG sensor, 100 nM antigen
pKd here: minus log base 10 of the concentration, concentration in moles per litre.

Use the examples below as a reference point.
Binder: ADI-41703 (antibody, V domains shown, also called Ab 895; Antibody Number 895) VH: EVQLLESGSGLVKPLQTLSLTCAVSGGSISSGGYSWSWIRQPPGKGLEWIGYIYPSGSTYYNPSLKSRVTMSIDRSKNQFSLRLTSVTAADTAVYYCARGDGNDFWSADSSHAFAIWGQGTMVTVSS VL: EIVMTQSPGTLSLSPGERATLSCRASQIVGNSYLAWYQQKPGQAPRLLIYGASSRATGIPERFSGSGSGTDFTLTISRLEPEDFAVYHCQQYGSSPWTFGQGTKVEIK
Endpoint label: pKd
Readout value: 9.07
//
Binder: ADI-41569 (antibody, V domains shown, also called Ab 847; Antibody Number 847) VH: EVQLLESGAEVKKPGSSVKVSCKASGGTFSTYAISWVRQAPGQGLEWMGGIIPVLGTTKYAQKFQDRVTITADESTSTAYMDLSGLRSDDTAVYYCARGVWGDCGRASCLFDWYFDLWGRGTLVTVSS VL: EIVMTQSPATLSVSPGERVTLSCSASQTVSSNLAWYQQKPGQAPRLLIYGASIRATDIPARFSGSGSRTEFTLTISSLQSEDFAVYYCQQYNNRPPLTFGGGTKVEIK
Endpoint label: pKd
Readout value: 8.79

Any idea what pKd was measured for ADI-41781 (antibody, V domains shown) VH: QVQLVQSGAEVRKPGASVKVSCKAFGYTFTNFAISWVRQAPGQGLEWMGWIGPYNGDTDYEQKFQGRVTMTADTSSSTVFMELRSLRFDDTAVYYCARGKGSTIPLGYYIGMDVWGQGTTVTVSS VL: ETTLTQSPSSLSASVGDRVTMTCRASQGISNYLAWYQQKPGKPPKLLIYLASSLQSGVPSRFSGSGSGTDFTLTISSLQPEDVATYYCQKYNSAPLTFGGGTKLEIK ?
9.18
